ASSAY_TEXT: ACEA_ER_AUC_viability: ACEA Biosciences xCELLigence Real-Time Cell Analysis on Estrogen Receptor Agonism for Viability (AID 2283782);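 further: continuous compound exposure with impedance area under curve over 80 h; hit means loss of impedance signal meaning reduced cell growth or viability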
Inconclusive results are not listed. Active and inactive are the calls of the source. How the source made its calls: active means hit-call score of the fitted dose curve at least 0.9, where 1 is the maximum; inconclusive means response in the unintended direction; inactive means score below 0.9.
Outcomes: label 1 for active, label 0 for inactive

COMPOUND	CLASS_NAME
Nc1ncn[nH]1	label 0
Oc1c(Br)cc(Br)cc1Br	label 0
c1ccc(-c2cccc(-c3ccccc3)c2)cc1	label 1
CCOC(=O)C(SP(=S)(OC)OC)c1ccccc1 (stereo unspecified)	label 0
CCOc1ccc(N)cc1	label 0
Cc1cc(Cl)ccc1OC(C)C(=O)O (stereo unspecified)	label 0

----------
Read-out: E-selectin (Homo sapiens) (UniProt P16581)
Sequence (P16581 whole entry, looked up): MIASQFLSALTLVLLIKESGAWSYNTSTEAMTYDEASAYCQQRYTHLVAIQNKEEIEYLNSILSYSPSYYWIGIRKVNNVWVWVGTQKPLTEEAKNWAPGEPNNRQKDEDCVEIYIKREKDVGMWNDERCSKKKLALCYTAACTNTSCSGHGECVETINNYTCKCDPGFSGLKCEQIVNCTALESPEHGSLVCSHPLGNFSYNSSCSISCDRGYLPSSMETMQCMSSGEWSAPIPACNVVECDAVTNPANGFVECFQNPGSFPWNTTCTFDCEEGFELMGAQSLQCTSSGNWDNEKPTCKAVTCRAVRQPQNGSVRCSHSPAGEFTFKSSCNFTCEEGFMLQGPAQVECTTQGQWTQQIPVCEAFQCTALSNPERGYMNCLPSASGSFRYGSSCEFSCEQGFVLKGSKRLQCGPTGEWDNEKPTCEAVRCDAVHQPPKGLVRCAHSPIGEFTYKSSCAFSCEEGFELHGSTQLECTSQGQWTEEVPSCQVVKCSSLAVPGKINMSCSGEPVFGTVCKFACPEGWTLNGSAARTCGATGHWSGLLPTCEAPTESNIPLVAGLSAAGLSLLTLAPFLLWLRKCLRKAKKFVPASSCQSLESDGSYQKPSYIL
ASSAY_TEXT: BSK_LPS_Eselectin: BioMAP Diversity Plus: LPS Assay for Eselectin Biomarker Activity (AID 2283077)
PROTOCOL_CONDITIONS: primary human HUVEC with PBMC; actives raise or lower the signal
Activity calls are given as the source filed them. How the source made its calls: active means hit-call score of the fitted dose curve at least 0.9, where 1 is the maximum; inactive means score below 0.9.
Outcomes: 1.0 for active, 0.0 for inactive

COMPOUND	CLASS_NAME
CC(C)(COCC1CO1)COCC1CO1 (stereo unspecified)	0.0
O=S(=O)(c1ccc(Cl)cc1)c1cc(Cl)c(Cl)cc1Cl	0.0
CCCCCCCCCCCCN(C)C	0.0
CC(C)O.CC(C)O.OCCN(CCO)CCO.OCCN(CCO)CCO.[Ti]	0.0
Cc1ccc2nc3sc(=O)sc3nc2c1	1.0
CCOP(=O)(OCC)SCCSCC	0.0
O=c1oc2ccccc2c(O)c1C(CC(O)c1ccc(-c2ccc(Br)cc2)cc1)c1ccccc1 (stereo unspecified)	1.0
CC(C)=CC1C(C(=O)OCc2cccc(Oc3ccccc3)c2)C1(C)C (stereo unspecified)	0.0
OC(Cc1ccccc1Cl)(Cn1[nH]cnc1=S)C1(Cl)CC1 (stereo unspecified)	0.0
O=S(=O)(C(Cl)(Cl)Cl)C(Cl)(Cl)Cl	1.0
O=C(O)COc1cc(Cl)c(Cl)cc1Cl	0.0

----------
TARGET: Heat shock factor protein 1 (Homo sapiens) (UniProt Q00613)
Sequence (Q00613 whole entry, looked up): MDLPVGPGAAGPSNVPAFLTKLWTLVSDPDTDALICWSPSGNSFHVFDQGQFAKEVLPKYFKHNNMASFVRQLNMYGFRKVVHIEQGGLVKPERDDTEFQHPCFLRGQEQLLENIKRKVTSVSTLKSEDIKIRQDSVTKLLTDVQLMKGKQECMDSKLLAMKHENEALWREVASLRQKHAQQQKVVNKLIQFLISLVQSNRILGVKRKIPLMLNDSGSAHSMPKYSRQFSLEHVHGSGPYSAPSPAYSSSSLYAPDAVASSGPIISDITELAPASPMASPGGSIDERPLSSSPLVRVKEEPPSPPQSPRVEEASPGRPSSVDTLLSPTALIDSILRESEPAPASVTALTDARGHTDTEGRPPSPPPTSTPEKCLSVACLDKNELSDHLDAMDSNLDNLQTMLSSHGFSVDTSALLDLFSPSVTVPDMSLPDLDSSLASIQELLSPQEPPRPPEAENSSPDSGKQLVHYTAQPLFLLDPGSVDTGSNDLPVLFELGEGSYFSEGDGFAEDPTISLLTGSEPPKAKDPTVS
ASSAY_TEXT: ATG_HSE_CIS: Attagene CIS-FACTORIAL HepG2 Assay for human Heat Shock Transcription Factor 1 (HSE) (AID 2282953)
PROTOCOL_CONDITIONS: HepG2 HSE cis-reporter, Attagene RNA transcription; actives raise or lower the signal
Active and inactive are the calls of the source. Rule for the calls: active = hit-call score of the fitted dose curve at least 0.9, where 1 is the maximum; inactive = score below 0.9.
Outcomes: true (1) = active, false (0) = inactive

COMPOUND	CLASS_NAME
CCN(N=O)C(N)=O	false (0)
Cl[C@H]1OCCO[C@@H]1Cl	false (0)
Clc1cnc(Oc2ccc(Oc3ncc(Cl)cc3Cl)cc2)c(Cl)c1	false (0)
CCCCC(CC)C(=O)Cl (stereo unspecified)	false (0)
O=C/C(Cl)=C(/Cl)C(=O)O	true (1)
CCN(CCO)CCO	false (0)
CC(C)[C@@H](Nc1ccc(C(F)(F)F)cc1Cl)C(=O)OC(C#N)c1cccc(Oc2ccccc2)c1 (stereo partly specified)	false (0)
Brc1ccc(Br)cc1	false (0)
COc1ccc(N)cc1	false (0)
CC(C)(C)c1ccccc1O	false (0)
CCCCN(CCCC)C(=S)S	true (1)
Oc1c(Cl)cc(Cl)cc1Cl	false (0)
CC(C)(C)c1cc([N+](=O)[O-])cc(C(C)(C)C)c1O	false (0)
Nc1c(Oc2ccccc2)cc(O)c2c1C(=O)c1ccccc1C2=O	false (0)
C=CC(F)(C(F)(F)F)C(F)(F)C(F)(F)F (stereo unspecified)	false (0)
Cc1cc(Cl)ccc1N	false (0)
O=S(=O)(Oc1ccc(Cl)cc1)c1ccc(Cl)cc1	false (0)
O=S(=O)(C(Cl)(Cl)Cl)C(Cl)(Cl)Cl	true (1)
CCOP(=O)(OCC)SCCSCC	false (0)
Nc1cccnc1	false (0)
[Cl][Sn]([c]1ccccc1)([c]1ccccc1)[c]1ccccc1	true (1)
CN(C1CCCCC1)C1CCCCC1	false (0)
CCOC(=O)CC(=O)CCl	true (1)
Brc1c(Br)c(Br)c(Oc2c(Br)c(Br)c(Br)c(Br)c2Br)c(Br)c1Br	false (0)
C#CCOC(=O)/C=C(C)/C=C/CC(C)CCCC(C)C (stereo unspecified)	false (0)
CC(F)(F)CC(F)(F)F	false (0)
N#Cc1ccc(Cl)cc1	false (0)
O=CCCl	true (1)
O=[N+]([O-])c1ccc(Cl)c([N+](=O)[O-])c1	true (1)
C=CCOC(N)=O	false (0)
CCCCCCCCCCCCCCC(Br)C(=O)O (stereo unspecified)	true (1)
O=C(Nc1ccc(Br)cc1)c1cc(Br)cc(Br)c1O	true (1)
BrCCCCBr	false (0)
CCCCCCCCCCCCBr	false (0)
CCOC(=O)OC1=C(c2cc(C)ccc2C)C(=O)NC12CCC(OC)CC2 (stereo unspecified)	false (0)
O=[N+]([O-])c1ccc(Nc2ccccc2)cc1	false (0)

----------
Read-out: E-selectin (Homo sapiens) (UniProt P16581)
ASSAY_TEXT: BSK_3C_Eselectin: BioMAP Diversity Plus: 3C Assay for Eselectin Biomarker Activity (AID 2283015)
PROTOCOL_CONDITIONS: primary human endothelial cells (HUVEC); actives raise or lower the signal
Description: BSK_3C is a cell-based, multiplexed-readout assay that uses umbilical vein endothelium, a human vascular primary cell, with measurements taken at 24 hours after chemical dosing in a 96-well plate.BSK_3C_Eselectin is an assay component measured in the BSK_3C assay. It measures E-selectin antibody related to regulation of gene expression using ELISA technology.Data from the assay component BSK_3C_Eselectin was analyzed into 1 assay endpoint. […]
Active and inactive are the calls of the source. Rule for the calls: active = hit-call score of the fitted dose curve at least 0.9, where 1 is the maximum; inactive = score below 0.9.
Outcomes: active, inactive

COMPOUND	CLASS_NAME
COc1ccccc1N	inactive
Nc1c(Oc2ccccc2)cc(O)c2c1C(=O)c1ccccc1C2=O	inactive
O=C(O)COc1cc(Cl)c(Cl)cc1Cl	inactive
COCC(=O)N(c1c(C)cccc1C)[C@H](C)C(=O)OC	inactive
O=C(Cc1ccccc1)OCCc1ccccc1	inactive
CC(C)(COCC1CO1)COCC1CO1 (stereo not given)	inactive
Cc1cc(C(C)(C)c2ccc(O)c(C)c2)ccc1O	active
CN(C)C(=S)S	inactive
C#CCOC(=O)/C=C(C)/C=C/CC(C)CCCC(C)C (stereo not given)	active
N#CCCC(Br)(C#N)CBr (stereo not given)	active
Cc1ccc2nc3sc(=O)sc3nc2c1	active
Cc1cccc(OP(=O)(Oc2cccc(C)c2)Oc2cccc(C)c2)c1	inactive
Cc1ccccc1OP(=O)(Oc1ccccc1C)Oc1ccccc1C	active
OCCCCO	inactive
OCCN(CCO)CCO	inactive
CCC(C)(C#N)N=NC(C)(C#N)CC (stereo not given)	inactive
Nc1ccc(N)cc1	inactive
CC(C)N(C(=O)CCl)c1ccccc1	active
CCOP(=O)(OCC)OC(=CCl)c1ccc(Cl)cc1Cl	active
O=C(O)C1(c2ccc3c(c2)OC[C@H](Cc2ccc(-c4ccccc4)cc2)[C@H]3O)CCCC1	active
C[C@]12CC[C@@H](O)C[C@@H]1CC[C@@H]1[C@@H]2CC[C@]2(C)C(=O)CC[C@@H]12	inactive
CC(C)(C)c1ccccc1O	inactive
CCCCN(CCCC)C(=S)[S-].CCCCN(CCCC)C(=S)[S-].[Ni+2]	inactive
Cc1ccc(OP(=O)(Oc2ccc(C)cc2C)Oc2ccc(C)cc2C)c(C)c1	inactive
CCCCOC(=O)COC(=O)c1ccccc1C(=O)OCCCC	inactive
[Cl][Sn]([c]1ccccc1)([c]1ccccc1)[c]1ccccc1	active
CCOC(=O)CCN(SN(C)C(=O)Oc1cccc2c1OC(C)(C)C2)C(C)C	active
Cc1c([N+](=O)[O-])c(C)c([N+](=O)[O-])c(C(C)(C)C)c1[N+](=O)[O-]	active
CCOP(=O)(OCC)SCCSCC	inactive
CCOP(=S)(OCC)OP(=S)(OCC)OCC	active

----------
TARGET: Peroxisome proliferator-activated receptor gamma (Homo sapiens) (UniProt P37231)
Sequence (P37231 whole entry, looked up): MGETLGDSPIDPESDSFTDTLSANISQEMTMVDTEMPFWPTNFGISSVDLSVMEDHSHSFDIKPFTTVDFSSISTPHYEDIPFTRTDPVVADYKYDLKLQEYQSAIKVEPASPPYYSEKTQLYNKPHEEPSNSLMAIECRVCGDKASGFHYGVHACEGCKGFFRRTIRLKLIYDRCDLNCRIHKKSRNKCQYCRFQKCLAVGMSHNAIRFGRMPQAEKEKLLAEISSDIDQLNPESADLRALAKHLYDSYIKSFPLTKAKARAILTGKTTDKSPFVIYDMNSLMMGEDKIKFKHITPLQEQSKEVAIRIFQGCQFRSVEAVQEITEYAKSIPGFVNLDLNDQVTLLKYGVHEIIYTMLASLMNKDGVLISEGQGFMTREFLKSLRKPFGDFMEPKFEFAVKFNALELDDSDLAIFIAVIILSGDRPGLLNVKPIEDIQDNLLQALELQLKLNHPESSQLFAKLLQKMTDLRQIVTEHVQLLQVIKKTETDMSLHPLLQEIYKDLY
ASSAY_TEXT: ATG_PPARg_TRANS: Attagene TRANS-FACTORIAL HepG2 Assay for human Peroxisome Proliferator-activated Receptor-gamma (PPARg) (AID 2283007)
Inconclusive results are not listed. Activity calls are given as the source filed them. Rule for the calls: active = hit-call score of the fitted dose curve at least 0.9, where 1 is the maximum; inconclusive = response in the unintended direction; inactive = score below 0.9.
Outcomes: active, inactive

STRUCTURE_SMILES	CLASS_NAME
O=S(=O)(C(Cl)(Cl)Cl)C(Cl)(Cl)Cl	inactive
O=C(NC(=O)c1c(F)cccc1F)Nc1cc(Cl)c(Oc2ncc(C(F)(F)F)cc2Cl)c(Cl)c1	inactive
c1csc(-c2ccc(-c3cccs3)s2)c1	active

----------
ASSAY_TEXT: ATG_MRE_CIS: Attagene CIS-FACTORIAL HepG2 Assay for human Metal Responsive Element (MRE) (AID 2282954)
PROTOCOL_CONDITIONS: HepG2 MRE cis-reporter transcription, Attagene multiplex; actives raise or lower the signal
The source made the active and inactive calls. Rule for the calls: active = hit-call score of the fitted dose curve at least 0.9, where 1 is the maximum; inactive = score below 0.9.
Outcomes: T for active, F for inactive

COMPOUND	CLASS_NAME
CCOP(=S)(OCC)O/N=C(\C#N)c1ccccc1	F
Clc1ccc(C(Cl)(Cl)Cl)cn1	F
Cc1cccc(C)c1NC(=O)CN1CCCC1=O	F
Oc1c(Cl)cc(Cl)cc1Cl	F
CCOC(=O)OC1=C(c2cc(C)ccc2C)C(=O)NC12CCC(OC)CC2 (stereo not given)	F
CC1(C)[C@H](/C=C2\CCSC2=O)[C@@H]1C(=O)OCc1coc(Cc2ccccc2)c1	T
CCCCCCCCBr	F
c1cc[c]([Sb]([c]2ccccc2)[c]2ccccc2)cc1	F
Cc1cc(-c2cc(C)c(N)c(C)c2)cc(C)c1N	F
CC(F)(F)CC(F)(F)F	F
CC(C)(COCC1CO1)COCC1CO1 (stereo not given)	T
BrCCCCBr	F
O=[N+]([O-])c1ccc(Nc2ccccc2)cc1	T
O=C1c2ccccc2C(=O)C1C(=O)C(c1ccccc1)c1ccc(Cl)cc1 (stereo not given)	T
N#Cc1ccc(Cl)cc1	F
CCCCN(CCCC)C(=S)[S-].CCCCN(CCCC)C(=S)[S-].[Ni+2]	F
C=CCc1ccccc1O	F
CNC(=O)O/N=C/C(C)(C)S(C)(=O)=O	F
Cl[C@H]1OCCO[C@@H]1Cl	F
CCC[CH2][Sn]([Cl])([Cl])[CH2]CCC	T
CNC(=O)CSP(=O)(OC)OC	F
NNCCO	F
O=C(O)CC(O)(CC(=O)O)C(=O)O	F
CS(=O)(=O)c1ccc(C(=O)C2C(=O)CCCC2=O)c(Cl)c1COCC(F)(F)F	F
C=CC(=O)OCC(COC(=O)C=C)(COC(=O)C=C)COC(=O)C=C	T
ClCc1ccccc1CCl	F
C[C@]12CC[C@@H](O)C[C@@H]1CC[C@@H]1[C@@H]2CC[C@]2(C)C(=O)CC[C@@H]12	F
O=NN1CCCCCCC1	F
O=NN1CCOCC1	F
C=CC(F)(C(F)(F)F)C(F)(F)C(F)(F)F (stereo not given)	F
Clc1cccc(Cl)c1	F
CCC[N+](CCC)(CCC)CCC	F
C#CCO	F
C=CCCl	F
COC(=O)c1cc(Oc2ccc(Cl)cc2Cl)ccc1[N+](=O)[O-]	T
Clc1cc(C(Cl)(Cl)Cl)cnc1Cl	T
O=[N+]([O-])c1c2ccccc2cc2ccccc12	F
Cc1ccccc1OP(=O)(Oc1ccccc1)Oc1ccccc1	T
C=CC(Cl)CCl (stereo not given)	F
CC1CC(=O)O1 (stereo not given)	F
